Target: KRAS G12V protein in SW620 cells (Homo sapiens, UniProt P01116, G12V)
Construct: endogenous in cells; host or cells: SW620
Sequence (P01116 1-188 isoform P01116-2 G12V): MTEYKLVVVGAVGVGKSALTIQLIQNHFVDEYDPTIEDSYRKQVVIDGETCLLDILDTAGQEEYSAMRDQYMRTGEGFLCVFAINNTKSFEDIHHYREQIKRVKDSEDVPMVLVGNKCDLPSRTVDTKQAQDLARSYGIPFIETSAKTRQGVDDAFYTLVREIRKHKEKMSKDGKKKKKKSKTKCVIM
Assay: KRAS degradation assay (Western Blot) in SW620 cells
Type: cell-based
Conditions: 24 h
readout-kind: DC50 (nM)
Give bare numbers, in nM.

Sample records with DC50:
C#Cc1c(F)ccc2cc(O)cc(-c3ncc4c(N5CCOCC(C)(O)C5)nc(OCC5(CN6CCN(CC7CCC8(CC7)CCN(C(=O)c7ccc(OC)c(N9CCC(=O)NC9=O)c7)CC8)CC6)CC5)nc4c3F)c12 (stereo not drawn) : 7.6
[2H]C([2H])([2H])c1ccc(C(=O)N2CCC3(CCC(CN4CCN(C[C@@H](C)COc5nc(N6CCC[C@@](C)(O)C6)c6cnc(-c7cc(O)cc8ccc(F)c(C#C)c78)c(F)c6n5)CC4)CC3)CC2)cc1N1CCC(=O)NC1=O : 2.42

Alright, here's another compound for you.
[in] Using the record for C#Cc1c(F)ccc2cc(O)cc(-c3ncc4c(N5CCC[C@@](C)(O)C5)nc(OC[C@H](C)CN5CCN(CC6CCC7(CC6)CCN(C(=O)c6ccc(OC)c(N8CCC(=O)NC8=O)c6)CC7)CC5)nc4c3F)c12 , state its measured DC50.
[out] 0.87
